Cited source: ChEMBL document CHEMBL4002596

# study-target: Mushroom tyrosinase (Agaricus bisporus) (UniProt O42713+Q00024+C7FF04+C7FF05)
# assay-name: Inhibition of immobilized mushroom tyrosinase diphenolase activity assessed as reduction in caffeic acid oxidation at 50 uM by amperometric tyrosinase biosensor method
The source made the active and inactive calls. No cut-off for these calls is given here.
readout: inhibition

Answered examples (6):
COc1cc(C)c(-c2cc(O)c(OC)cc2C)cc1O ... Active
Oc1ccc(-c2ccc(O)cc2)cc1 ... Active
Oc1ccccc1-c1ccccc1O ... 10 to 20%
Oc1cccc(O)c1-c1c(O)cccc1O ... Active
Oc1ccc2c(c1-c1c(O)ccc3c1OCO3)OCO2 ... 82%
COc1cc(O)cc(-c2cc(O)cc(OC)c2OC)c1OC ... Active

*Q* Entry C=CCc1cc(-c2ccc(O)c(CC=C)c2)ccc1O : reported inhibition = ?
*A* Active

*Q* Entry Oc1ccc(-c2ccc(O)c(O)c2)cc1O : reported inhibition = ?
*A* Active
